Molecular target: KCNQ1/MINK (Homo sapiens, UniProt P51787+Q8N4C8)
Sequence (P51787 whole entry): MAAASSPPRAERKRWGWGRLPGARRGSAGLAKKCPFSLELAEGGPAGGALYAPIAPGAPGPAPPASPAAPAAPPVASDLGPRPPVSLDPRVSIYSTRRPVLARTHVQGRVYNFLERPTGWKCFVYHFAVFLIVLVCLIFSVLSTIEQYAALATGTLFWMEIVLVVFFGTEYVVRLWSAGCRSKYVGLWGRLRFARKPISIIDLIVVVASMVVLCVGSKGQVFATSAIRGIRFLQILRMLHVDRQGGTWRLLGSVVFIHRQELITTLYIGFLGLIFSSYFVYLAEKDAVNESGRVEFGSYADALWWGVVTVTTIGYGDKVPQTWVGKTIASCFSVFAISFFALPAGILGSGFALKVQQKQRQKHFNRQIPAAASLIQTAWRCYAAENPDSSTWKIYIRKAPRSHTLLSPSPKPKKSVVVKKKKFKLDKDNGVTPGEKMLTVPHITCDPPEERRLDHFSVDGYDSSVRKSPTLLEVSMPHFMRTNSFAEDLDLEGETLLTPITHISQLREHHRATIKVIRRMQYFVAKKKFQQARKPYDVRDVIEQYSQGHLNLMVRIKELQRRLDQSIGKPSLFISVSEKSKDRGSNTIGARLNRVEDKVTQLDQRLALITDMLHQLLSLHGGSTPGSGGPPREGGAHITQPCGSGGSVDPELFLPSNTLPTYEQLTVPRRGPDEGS
Sequence (Q8N4C8 whole entry): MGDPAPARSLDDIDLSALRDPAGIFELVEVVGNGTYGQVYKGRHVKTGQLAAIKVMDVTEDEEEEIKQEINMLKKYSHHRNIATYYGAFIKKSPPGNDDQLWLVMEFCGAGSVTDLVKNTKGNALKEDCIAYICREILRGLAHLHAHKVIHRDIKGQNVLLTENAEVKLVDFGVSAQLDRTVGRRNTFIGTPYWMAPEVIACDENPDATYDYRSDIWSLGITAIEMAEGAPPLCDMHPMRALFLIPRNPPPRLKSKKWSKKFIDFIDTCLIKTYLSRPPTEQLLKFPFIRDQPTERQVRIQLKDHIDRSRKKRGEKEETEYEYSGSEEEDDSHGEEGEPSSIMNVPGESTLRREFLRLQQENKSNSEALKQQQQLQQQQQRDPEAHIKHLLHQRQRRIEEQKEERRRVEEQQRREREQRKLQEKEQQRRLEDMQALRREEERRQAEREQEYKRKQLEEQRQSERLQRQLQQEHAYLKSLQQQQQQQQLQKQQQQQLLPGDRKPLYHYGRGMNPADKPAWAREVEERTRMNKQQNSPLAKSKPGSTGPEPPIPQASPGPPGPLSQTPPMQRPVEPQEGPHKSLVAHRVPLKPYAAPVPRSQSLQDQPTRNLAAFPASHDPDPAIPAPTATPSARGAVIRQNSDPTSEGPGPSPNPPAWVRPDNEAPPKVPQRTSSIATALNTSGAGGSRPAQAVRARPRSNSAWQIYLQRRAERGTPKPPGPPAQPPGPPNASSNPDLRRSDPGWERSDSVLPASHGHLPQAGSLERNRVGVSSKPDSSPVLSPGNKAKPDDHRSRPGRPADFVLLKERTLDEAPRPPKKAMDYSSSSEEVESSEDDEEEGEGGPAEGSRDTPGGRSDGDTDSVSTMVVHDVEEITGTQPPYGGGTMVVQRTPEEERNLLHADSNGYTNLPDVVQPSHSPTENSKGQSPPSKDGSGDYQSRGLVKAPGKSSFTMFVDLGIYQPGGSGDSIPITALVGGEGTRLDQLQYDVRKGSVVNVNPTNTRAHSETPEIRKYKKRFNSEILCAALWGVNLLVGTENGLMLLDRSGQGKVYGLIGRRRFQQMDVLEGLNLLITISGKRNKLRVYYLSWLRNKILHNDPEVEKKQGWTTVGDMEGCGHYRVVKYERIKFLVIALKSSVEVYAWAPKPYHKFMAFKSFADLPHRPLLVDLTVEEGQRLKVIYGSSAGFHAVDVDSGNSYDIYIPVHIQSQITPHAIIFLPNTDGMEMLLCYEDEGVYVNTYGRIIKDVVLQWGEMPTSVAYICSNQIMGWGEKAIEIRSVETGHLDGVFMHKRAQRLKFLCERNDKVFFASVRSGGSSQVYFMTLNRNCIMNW
Experiment: Inhibition of KCNQ1/MINK (unknown origin) at 10 uM
Format: toxicity

# given_smiles, inhibition at 10 µM
records = [
    ("FC(F)(F)c1nccc2cc(Nc3n[nH]c4ncccc34)ccc12", "< 50%"),
]

----------
Assay: Clearance in CD-1 mouse plasma at 1 mg/kg, iv and measured upto 24 hrs by LC-MS/MS analysis
Format: ADME, organism-based

# given_smiles, clearance
measured = [
    ("FC(F)(F)c1nccc2cc(Nc3n[nH]c4ncccc34)ccc12", "78.3 mL/min/kg"),
]

----------
Target: UniProt:P08684
Sequence (P08684 whole entry): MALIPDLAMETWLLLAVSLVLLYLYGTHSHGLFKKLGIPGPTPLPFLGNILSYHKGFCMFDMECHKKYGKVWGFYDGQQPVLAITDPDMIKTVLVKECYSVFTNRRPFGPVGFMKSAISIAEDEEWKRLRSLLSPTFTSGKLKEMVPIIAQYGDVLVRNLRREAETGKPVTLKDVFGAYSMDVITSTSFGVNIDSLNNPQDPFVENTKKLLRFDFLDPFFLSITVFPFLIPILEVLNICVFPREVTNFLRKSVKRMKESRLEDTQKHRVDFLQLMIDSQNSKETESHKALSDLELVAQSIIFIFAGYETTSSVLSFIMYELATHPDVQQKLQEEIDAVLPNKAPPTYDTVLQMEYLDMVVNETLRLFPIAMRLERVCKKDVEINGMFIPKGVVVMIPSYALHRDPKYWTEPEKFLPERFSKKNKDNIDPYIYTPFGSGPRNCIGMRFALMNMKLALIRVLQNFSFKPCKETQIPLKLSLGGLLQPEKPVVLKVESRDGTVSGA
pIC50: −log10 of the molar value.
metric: pIC50

# given_smiles, result
measured = [
    ("FC(F)(F)c1nccc2cc(Nc3n[nH]c4ncccc34)ccc12", "< 4.52"),
]
